- assayed-system: purified human, His-tagged PRC2 complex (Homo sapiens (Human))
- Sequence (Q15910 whole entry): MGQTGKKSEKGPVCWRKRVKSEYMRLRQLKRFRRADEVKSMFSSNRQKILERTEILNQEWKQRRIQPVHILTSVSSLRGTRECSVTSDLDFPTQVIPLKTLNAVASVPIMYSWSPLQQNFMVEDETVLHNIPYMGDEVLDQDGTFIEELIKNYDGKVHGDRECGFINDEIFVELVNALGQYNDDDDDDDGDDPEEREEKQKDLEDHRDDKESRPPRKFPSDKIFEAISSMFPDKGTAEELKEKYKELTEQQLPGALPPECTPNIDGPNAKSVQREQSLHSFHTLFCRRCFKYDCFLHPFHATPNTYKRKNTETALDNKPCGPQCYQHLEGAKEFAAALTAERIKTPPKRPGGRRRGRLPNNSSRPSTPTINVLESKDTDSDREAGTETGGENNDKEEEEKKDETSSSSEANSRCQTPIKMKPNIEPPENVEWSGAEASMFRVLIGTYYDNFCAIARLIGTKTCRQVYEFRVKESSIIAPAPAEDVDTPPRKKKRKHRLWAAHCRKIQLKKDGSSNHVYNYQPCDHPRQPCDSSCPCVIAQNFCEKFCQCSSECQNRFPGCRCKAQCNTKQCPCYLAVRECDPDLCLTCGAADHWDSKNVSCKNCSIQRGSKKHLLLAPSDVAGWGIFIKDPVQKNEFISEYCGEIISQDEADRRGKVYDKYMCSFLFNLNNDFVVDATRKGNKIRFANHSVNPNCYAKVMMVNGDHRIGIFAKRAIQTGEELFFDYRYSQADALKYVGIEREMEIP
- Sequence (O75530 whole entry): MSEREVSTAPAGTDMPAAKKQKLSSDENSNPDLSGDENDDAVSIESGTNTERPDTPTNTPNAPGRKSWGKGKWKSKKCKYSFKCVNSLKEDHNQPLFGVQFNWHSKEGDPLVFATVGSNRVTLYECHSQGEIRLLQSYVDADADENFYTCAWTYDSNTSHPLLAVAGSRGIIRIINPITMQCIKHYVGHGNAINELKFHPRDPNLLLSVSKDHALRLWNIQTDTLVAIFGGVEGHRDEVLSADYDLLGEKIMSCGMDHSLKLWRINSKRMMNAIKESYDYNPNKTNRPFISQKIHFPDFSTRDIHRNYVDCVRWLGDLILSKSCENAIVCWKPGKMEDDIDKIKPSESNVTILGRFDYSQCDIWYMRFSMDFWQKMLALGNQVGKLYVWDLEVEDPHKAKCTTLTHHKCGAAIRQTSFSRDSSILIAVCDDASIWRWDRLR
- Sequence (Q15022 whole entry partner): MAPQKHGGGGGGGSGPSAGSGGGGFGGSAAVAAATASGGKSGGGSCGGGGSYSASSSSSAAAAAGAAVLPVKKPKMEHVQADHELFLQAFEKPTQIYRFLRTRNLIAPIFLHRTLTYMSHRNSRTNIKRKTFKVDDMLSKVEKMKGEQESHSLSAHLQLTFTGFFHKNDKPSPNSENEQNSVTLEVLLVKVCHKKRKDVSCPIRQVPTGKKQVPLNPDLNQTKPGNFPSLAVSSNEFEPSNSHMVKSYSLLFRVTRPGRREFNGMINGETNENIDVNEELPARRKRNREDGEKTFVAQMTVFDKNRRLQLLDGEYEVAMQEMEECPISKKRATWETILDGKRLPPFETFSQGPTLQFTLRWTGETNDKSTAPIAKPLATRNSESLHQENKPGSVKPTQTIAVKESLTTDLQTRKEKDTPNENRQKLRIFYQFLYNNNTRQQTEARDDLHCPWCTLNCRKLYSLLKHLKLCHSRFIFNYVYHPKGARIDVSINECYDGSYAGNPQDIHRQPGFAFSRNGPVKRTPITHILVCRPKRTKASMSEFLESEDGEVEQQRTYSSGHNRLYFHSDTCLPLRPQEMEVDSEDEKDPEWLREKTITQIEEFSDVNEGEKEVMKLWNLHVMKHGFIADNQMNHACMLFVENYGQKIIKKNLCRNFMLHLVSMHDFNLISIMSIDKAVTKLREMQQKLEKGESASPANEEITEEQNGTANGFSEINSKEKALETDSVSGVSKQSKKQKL
- Sequence (Q6ZN18 whole entry partner): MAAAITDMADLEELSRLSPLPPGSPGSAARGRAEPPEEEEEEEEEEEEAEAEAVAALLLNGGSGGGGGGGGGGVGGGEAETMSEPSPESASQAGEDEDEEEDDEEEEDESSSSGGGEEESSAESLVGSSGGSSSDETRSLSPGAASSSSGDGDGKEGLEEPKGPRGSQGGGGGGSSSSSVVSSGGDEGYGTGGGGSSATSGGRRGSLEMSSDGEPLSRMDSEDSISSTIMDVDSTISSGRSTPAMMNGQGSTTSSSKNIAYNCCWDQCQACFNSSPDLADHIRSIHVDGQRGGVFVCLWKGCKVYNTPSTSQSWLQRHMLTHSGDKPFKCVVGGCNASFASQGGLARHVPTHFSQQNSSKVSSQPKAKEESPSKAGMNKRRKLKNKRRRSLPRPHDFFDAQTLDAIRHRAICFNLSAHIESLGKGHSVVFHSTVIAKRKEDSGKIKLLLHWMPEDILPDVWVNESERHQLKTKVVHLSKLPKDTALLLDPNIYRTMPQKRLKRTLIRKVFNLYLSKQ
- Sequence (Q09028 whole entry partner): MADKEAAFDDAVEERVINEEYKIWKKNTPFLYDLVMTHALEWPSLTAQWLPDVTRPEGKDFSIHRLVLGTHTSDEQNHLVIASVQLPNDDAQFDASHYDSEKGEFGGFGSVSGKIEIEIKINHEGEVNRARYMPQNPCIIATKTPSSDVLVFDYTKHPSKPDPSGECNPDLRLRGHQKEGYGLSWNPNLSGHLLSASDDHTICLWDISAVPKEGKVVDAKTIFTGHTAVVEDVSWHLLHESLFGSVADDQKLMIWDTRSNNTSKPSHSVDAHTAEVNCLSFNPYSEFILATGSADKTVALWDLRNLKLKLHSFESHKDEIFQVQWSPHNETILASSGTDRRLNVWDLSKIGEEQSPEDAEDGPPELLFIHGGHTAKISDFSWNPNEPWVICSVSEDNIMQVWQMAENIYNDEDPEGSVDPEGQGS
- assay-summary: Hot Spot HMT assay of PRC2 enzymatic activity (tritiated methyl transfer from SAM to core histone)
- Format: biochemical
- experimental-conditions: 10 nM purified PRC2 complex, 0.05 mg/ml core histone H3, 1 uM 3H-SAM, 1 hr at 30° C.; read-out: IC50, Inhibition of PRC2-mediated Enzymatic Activity
pIC50: −log10 of the molar value.
measured-endpoint: pIC50

Cn1nccc1-c1cnc(NCc2c(F)ccc3c2CCO3)n2cc(CN3CCC3)nc12    5.70 to 6.30
Cn1nccc1-c1cnc(NCc2c(F)ccc3c2CCO3)n2cc(CN)nc12    > 6.60
Cc1cc(-c2cnc(NCc3c(F)ccc4c3CCO4)n3cc(C(N)C(F)(F)F)nc23)n(C)n1 (stereo not shown)    6.30 to 6.60
Cc1c(F)cccc1-c1cnc(NCc2c(F)ccc3c2CCO3)n2cc(CN)nc12    5.70 to 6.30
Cc1ncccc1-c1cnc(NCc2c(F)ccc3c2CCO3)n2cc(CO)nc12    5.70 to 6.30
Cc1cc(-c2cnc(NCc3c(F)ccc4c3CCO4)n3cc(CN)nc23)n(C)n1    > 6.60

Problem: // pIC50 lookup, key: Cc1cc(-c2cnc(NCc3c(F)ccc4c3CCO4)n3cc(C(O)c4ccccc4)nc23)n(C)n1 (stereo not shown)
Solution: 6.30 to 6.60

Problem: Report pIC50 for "COc1ccc(-c2cnc(NCc3c(F)ccc4c3CCO4)n3cc(CN)nc23)c(C)n1" please.
Solution: > 6.60

Problem: Item under review: "Cc1cc(-c2cnc(NCc3c(F)ccc4c3CCO4)n3cc(CN(CCS(=O)(=O)F)CCS(=O)(=O)F)nc23)n(C)n1" . Reported pIC50?
Solution: 5.70 to 6.30

Problem: Return reported pIC50; argument: Cc1ncccc1-c1cnc(NCc2c(F)ccc3c2CCO3)n2cc(C(C)N)nc12 (stereo not shown)
Solution: > 6.60
